// values below are reported abundance fitness
B1: Arginine-glutamic acid dipeptide repeats protein, residues 502 to 543; numbered along this chain, Q9P2R6 (parent)
chain: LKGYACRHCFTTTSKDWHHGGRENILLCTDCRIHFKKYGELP

- Variants of: B1
- ASSAY SUMMARY: abundance fitness (aPCA) (normalised: wild type 0, dead -1); higher = more abundant; growth selection in yeast, the domain comes from the species named
- CONDITION DESCRIPTION: Homo sapiens

Example entries and their recorded answers appear below.
I33F -0.079
R32C -0.114
G3T -0.093
C9G -0.455
Y4N 0.165

Retrieve abundance fitness measured for G3S and print it. -0.107

Retrieve abundance fitness measured for L27G and print it. -0.494

Retrieve abundance fitness measured for H34E and print it. -0.242

Retrieve abundance fitness measured for L41I and print it. -0.46

Retrieve abundance fitness measured for E40C and print it. -0.073

Retrieve abundance fitness measured for G20E and print it. -0.066

Retrieve abundance fitness measured for I25F and print it. -0.213

Retrieve abundance fitness measured for H19I and print it. -0.045

Origin of values: the Human Domainome abundance scans (Beltran et al. 2025)
